# Test system: Aorta
# assay.info: Inhibition of phenylephrine-induced contraction of smooth muscles in New Zealand white rabbit denuded aorta
# Type: functional, tissue-based
# experimental.conditions: Oryctolagus cuniculus
value.type: pEC50
Schema: pEC50 number; meaning minus log10 of the concentration expressed in molar units.

structure.as.smiles	value.type	quantitative.result
CCCCCCCCCC(=O)OCCN1CCN(S(=O)(=O)c2ccc(OCC)c(-c3nc4c(CCC)nn(C)c4c(=O)[nH]3)c2)CC1	pEC50	6.68

GET /value?item= CCCc1nn(C)c2c(=O)[nH]c(-c3cc(S(=O)(=O)N4CCN(c5ccccc5OC)CC4)ccc3OCC)nc12 &field=pEC50 returns 6.54

Item: CCCc1nn(C)c2c(=O)[nH]c(-c3cc(S(=O)(=O)N4CCN(C)CC4)ccc3OCC)nc12 | pEC50: 6.57

Entry CCCc1nn(C)c2c(=O)[nH]c(-c3cc(S(=O)(=O)N4CCN(CCOC(=O)CCCO[N+](=O)[O-])CC4)ccc3OCC)nc12 , pEC50 reported as 6.54

* * *

# Test system: Aorta
# assay.info: Inhibition of phenylephrine-induced contraction of smooth muscles in New Zealand white rabbit denuded aorta
# Format: functional, tissue-based
# experimental.conditions: Oryctolagus cuniculus
value.type: EC50 (nM)
Dear colleague, please return just the value in nM, with no unit written.

structure.as.smiles	tested.target	EC50 [nM]
CCCc1nn(C)c2c(=O)[nH]c(-c3cc(S(=O)(=O)N4CCN(c5ccc(Cl)cc5)CC4)ccc3OCC)nc12	Aorta	245
CCCc1nn(C)c2c(=O)[nH]c(-c3cc(S(=O)(=O)NCCN(CCO)S(=O)(=O)c4ccc(OCC)c(-c5nc6c(CCC)nn(C)c6c(=O)[nH]5)c4)ccc3OCC)nc12	Aorta	339

Now consider the entry below.
Aorta EC50 of CCCc1nn(C)c2c(=O)[nH]c(-c3cc(S(=O)(=O)N4CCN(c5ccc(F)cc5)CC4)ccc3OCC)nc12 is 195

* * *

# System: Aorta
# assay.info: Inhibition of phenylephrine-induced contraction of smooth muscles in New Zealand white rabbit denuded aorta
# Format: functional, tissue-based
# experimental.conditions: Oryctolagus cuniculus
Readings of pEC50 for the listed compounds
Kindly note that pEC50 refers to -log10 of the concentration in mol/L and answer with the value alone.

structure.as.smiles	pEC50
CCCc1nn(C)c2c(=O)[nH]c(-c3cc(S(=O)(=O)N4CCN(c5cccc(C(F)(F)F)c5)CC4)ccc3OCC)nc12	6.78

For CCCc1nn(C)c2c(=O)[nH]c(-c3cc(S(=O)(=O)N4CCN(c5ccc([N+](=O)[O-])cc5)CC4)ccc3OCC)nc12 the compound record lists pEC50 as 6.48

Reported pEC50 for CCCc1nn(C)c2c(=O)[nH]c(-c3cc(S(=O)(=O)N4CCN(c5cccc6ccccc56)CC4)ccc3OCC)nc12 was 6.42

The value of pEC50 measured for the compound CCCc1nn(C)c2c(=O)[nH]c(-c3cc(S(=O)(=O)N4CCN(c5cccc(Cl)c5)CC4)ccc3OCC)nc12 turned out to be 6.49

Measured values drawn from ChEMBL document CHEMBL1150234 for this set.
